# measured-on: HLA-B*3501 (human)
value-kind: RA (relative affinity)

INSERT INTO assay_data (binder, value_operator, meas_value) VALUES
  ('LAMPFATPMEAEL (synthetic peptide; also called 13-mer 92-104) [NY-ESO-1 peptide 92-104 LAMPFATPMEAEL]', '=', 0.58),
  ('LPSSADVEF (synthetic peptide) [tyrosinase peptide 312-320 LPSSADVEF]', '=', 1.25),
  ('TPRLPSSADVEFC (synthetic peptide; also called 13-mer 309-321) [tyrosinase peptide 309-321 TPRLPSSADVEFC]', '=', 16.7),
  ('TPRLPSSADVEFCL (synthetic peptide; also called 14-mer 309-322) [tyrosinase peptide 309-322 TPRLPSSADVEFCL]', '>', 20),
  ('VPLDCVLYR (synthetic peptide) [gp100 peptide 471-479 VPLDCVLYR]', '=', 20),
  ('EVDPIGHVY (synthetic peptide) [MAGE-A6 peptide 168-176 EVDPIGHVY]', '=', 1.1),
  ('TPRLPSSADVEF (synthetic peptide; also called 12-mer 309-320) [tyrosinase peptide 309-320 TPRLPSSADVEF]', '=', 1.3),
  ('MPFATPMEAEL (synthetic peptide; also called 11-mer 94-104) [NY-ESO-1 peptide 94-104 MPFATPMEAEL]', '=', 1.32);
